Molecular target: CB1 receptor (Homo sapiens)
Sequence (P21554 whole entry): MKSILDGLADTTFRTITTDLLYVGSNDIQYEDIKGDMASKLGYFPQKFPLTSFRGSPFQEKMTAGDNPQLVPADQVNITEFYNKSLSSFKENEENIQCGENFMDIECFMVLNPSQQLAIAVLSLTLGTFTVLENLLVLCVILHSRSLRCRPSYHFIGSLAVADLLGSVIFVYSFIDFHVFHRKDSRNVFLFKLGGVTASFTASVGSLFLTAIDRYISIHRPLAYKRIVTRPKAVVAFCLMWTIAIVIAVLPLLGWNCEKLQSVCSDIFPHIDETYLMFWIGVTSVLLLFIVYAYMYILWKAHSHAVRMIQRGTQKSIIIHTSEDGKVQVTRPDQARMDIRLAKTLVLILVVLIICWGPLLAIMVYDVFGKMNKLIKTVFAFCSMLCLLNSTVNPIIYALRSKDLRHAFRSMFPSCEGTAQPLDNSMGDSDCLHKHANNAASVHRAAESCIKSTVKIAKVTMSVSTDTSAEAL
Assay: β-arrestin recruitment in CNR1 PathHunter cell line, allosteric modulation of CP55,940 response
Type: cell-based
Conditions: Table 2, covalent allosteric modulators; read-out: β-arrestin activity EC50 (nm)
pEC50: −log10 of the molar value.

Compound: O=C(Nc1ccc(N=C=S)cc1)Nc1cccc(-c2cccc(N3CCCC3)n2)c1 [GAT332]
pEC50: 7.62

Compound: O=C(Nc1ccc(I)cc1)Nc1cccc(-c2cccc(N3CCCC3)n2)c1 [GAT205]
pEC50: 7.94

Compound: CCc1c(C(=O)NCCc2ccc(N3CCCCC3)cc2)[nH]c2ccc(N=C=S)cc12 [GAT100]
pEC50: 8.04

Compound: CCc1c(C(=O)NCCc2ccc(N3CCCCC3)cc2)[nH]c2ccc(N=[N+]=[N-])cc12 [GAT206]
pEC50: 7.55

Compound: [N-]=[N+]=Nc1ccc(NC(=O)Nc2cccc(-c3cccc(N4CCCC4)n3)c2)cc1 [GAT331]
pEC50: 6.98

Compound: O=C(Nc1ccc(C(=O)c2ccccc2)cc1)Nc1cccc(-c2cccc(N3CCCC3)n2)c1 [GAT300]
pEC50: 7.55

Compound: O=C(NCCc1ccc(N2CCCCC2)cc1)c1[nH]c2ccc(Cl)cc2c1CCN=C=S [GAT209]
pEC50: 6.65

* * *

Quick reference for EC50 among some molecules
Biological target: CB1 receptor (Homo sapiens)
Test: DiscoveRx HitHunter cAMP XS+ assay in cAMP Hunter cell line, allosteric modulation of CP55,940 response
Type: cell-based
Settings: Table 1; preincubation with compound, then CP55,940 challenge; 20 μM forskolin; read-out: cAMP EC50

Molecule: O=C(Nc1ccc(F)cc1)Nc1cccc(-c2cccc(N3CCCC3)n2)c1 [Compound 10t]
EC50: 148 nM

Molecule: O=C(Nc1ccc(Cl)cc1)Nc1cccc(-c2ccnc(N3CCCC3)c2)c1
EC50: 9790 nM

Molecule: N#C/N=C(/Nc1ccc(Cl)cc1)Nc1cccc(-c2cccc(N3CCCC3)n2)c1
EC50: 3340 nM

Molecule: Clc1ccc(-c2nnc(Nc3cccc(-c4cccc(N5CCCC5)n4)c3)o2)cc1
EC50: 4050 nM

Molecule: O=C(Nc1cccc(-c2cccc(N3CCCC3)n2)c1)Nc1ccc(Cl)cc1CCCCOC1CCCCO1 (centres unmarked) [Compound 23a]
EC50: 820 nM

Molecule: COc1ccc(NC(=O)Nc2cccc(-c3cccc(N4CCCC4)n3)c2)cc1 [Compound 10h]
EC50: 1230 nM

Molecule: O=C(Nc1cccc(-c2cccc(N3CCCC3)n2)c1)Nc1ccccc1CO
EC50: 1140 nM

Molecule: O=C(Nc1cccc(-c2cccc(N3CCCC3)n2)c1)NC1CCCCC1 [Compound 10z]
EC50: 659 nM

Molecule: O=C(Nc1cccc(Oc2ccccc2)c1)Nc1cccc(-c2cccc(N3CCCC3)n2)c1 [Compound 10l]
EC50: 2240 nM

Molecule: CCc1ccccc1NC(=O)Nc1cccc(-c2cccc(N3CCCC3)n2)c1 [Compound 10r]
EC50: 1190 nM

Molecule: Cc1cc(Cl)ccc1OC(=O)Nc1cccc(-c2cccc(N3CCCC3)n2)c1 [Compound 13c]
EC50: 3050 nM

Molecule: O=C(Nc1ccc(C(F)(F)F)cc1)Nc1cccc(-c2cccc(N3CCCC3)n2)c1 [Compound 10e]
EC50: 218 nM

Molecule: O=C(Nc1ccc(Cl)cc1)Oc1cccc(-c2cccc(N3CCCC3)n2)c1
EC50: > 10000 nM

Molecule: O=C(Nc1cccc(Cl)c1)Nc1cccc(-c2cccc(N3CCCC3)n2)c1 [Compound 10c]
EC50: 782 nM

Molecule: O=C(Nc1cccc(-c2cccc(N3CCCC3)n2)c1)Nc1ccc(Cl)c(C#CCCOC2CCCCO2)c1 (centres unmarked) [Compound 21b]
EC50: > 10000 nM

Molecule: O=C(Nc1cccc(-c2cccc(N3CCCC3)n2)c1)Nc1ccc(Cl)cc1C#CCCOC1CCCCO1 (centres unmarked) [Compound 21a]
EC50: > 10000 nM

Molecule: O=C(Nc1cccc(-c2cccc(N3CCCC3)n2)c1)Nc1ccccc1C(=O)O
EC50: > 10000 nM
